Biological target: T1, human ADAMTS5 (human, UniProt Q9UNA0 262-622, limits assumed)
T1 construct: Octet and ELISA used 'recombinant human ADAMTS5'; also called recombinant human ADAMTS5; ADAMTS5 (R&D Systems 2198-AD)
T1 sequence: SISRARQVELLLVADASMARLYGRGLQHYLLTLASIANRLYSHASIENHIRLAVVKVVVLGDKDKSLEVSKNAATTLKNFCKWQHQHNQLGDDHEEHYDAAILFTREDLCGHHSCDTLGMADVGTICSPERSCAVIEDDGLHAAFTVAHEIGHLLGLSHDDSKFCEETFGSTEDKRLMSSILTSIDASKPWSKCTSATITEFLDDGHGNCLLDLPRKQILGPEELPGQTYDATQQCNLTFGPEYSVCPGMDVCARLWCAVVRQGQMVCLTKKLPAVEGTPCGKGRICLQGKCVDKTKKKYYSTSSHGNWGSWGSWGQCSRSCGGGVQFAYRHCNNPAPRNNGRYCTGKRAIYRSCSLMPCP
Test: Biacore, mAb from culture supernatant captured on anti-human IgG, ADAMTS5 (R&D 2198-AD) at 64 nM, 1:1 fit
recorded endpoint: kon (M⁻¹ s⁻¹)
Reply numerically in M⁻¹ s⁻¹, unit not repeated.

Solved cases below.
binder: BPC1644 (antibody, human IgG1, kappa, V domains shown, Humanized, human gamma 1 / kappa; also called 7B4 H3L1) VH: EVQLVESGGGLVQPGGSLRLSCAASGFTSSDAWMDWVRQAPGKGLEWVAEIRNKANNHARHYAESVKGRFTISRDNAKNSLYLQMNSLRAEDTAVYYCTRTYYYGSSYGYCDVWGQGTLVTVSS VL: DIQMTQSPSSLSASVGDRVTITCRTSENIYSYLAWYQQKPGKAPKLLVYNAKTLAEGVPSRFSGSGSGTDFTLTISSLQPEDFATYYCQHHYGTPWTFGQGTKLEIKR
kon [M⁻¹ s⁻¹]: 1.49e+06

binder: BPC1622 (antibody, human IgG1, kappa, V domains shown, Chimeric: murine variable domains on human gamma 1 and kappa constant regions; also called 7B4 Chimera; Chimeric 7B4.1E11) VH: EVKLEESGGGLVQPGGSMKLSCAASGFTSSDAWMDWVRQSPEKGLEWVAEIRNKANNHARHYAESVKGRFTISRDDSKSSVYLQMNSLRAEDSGIYYCTRTYYYGSSYGYCDVWGTGTLVTVSS VL: DIQMTQSPASLSASVGETVTITCRTSENIYSYLAWYQQKQGKSPQLLVYNAKTLAEGVPSRFSGSGSGTQFSLKINSLQPEDFGSYSCQHHYGTPWTFGGGTKLEIKR
kon [M⁻¹ s⁻¹]: 1.16e+06

binder: BPC1652 (antibody, human IgG1, kappa, V domains shown, Humanized, human gamma 1 / kappa; also called 7B4 H4L2) VH: EVQLVESGGGLVQPGGSLRLSCAASGFTSSDAWMDWVRQAPGKGLEWVAEIRNKANNHARHYAESVKGRFTISRDDAKNSLYLQMNSLRAEDTAVYYCTRTYYYGSSYGYCDVWGQGTLVTVSS VL: DIQMTQSPSSLSASVGDRVTITCRTSENIYSYLAWYQQKPGKAPQLLVYNAKTLAEGVPSRFSGSGSGTDFTLTISSLQPEDFATYYCQHHYGTPWTFGQGTKLEIKR
kon [M⁻¹ s⁻¹]: 1.96e+06

binder: BPC1640 (antibody, human IgG1, kappa, V domains shown, Humanized, human gamma 1 / kappa; also called 7B4 H6L0) VH: EVQLVESGGGLVQPGGSLRLSCAASGFTSSDAWMDWVRQAPGKGLEWVAEIRNKANNHARHYAESVKGRFTISRDDAKNSVYLQMNSLRAEDTAVYYCTRTYYYGSSYGYCDVWGQGTLVTVSS VL: DIQMTQSPSSLSASVGDRVTITCRTSENIYSYLAWYQQKPGKAPKLLIYNAKTLAEGVPSRFSGSGSGTDFTLTISSLQPEDFATYYCQHHYGTPWTFGQGTKLEIKR
kon [M⁻¹ s⁻¹]: 787000

Task: Which kon value is on record for BPC1623 (antibody, human IgG1, kappa, V domains shown, Chimeric: murine variable domains on human gamma 1 and kappa constant regions; also called 12F4 Chimera; Chimeric 12F4.1H7) VH: EVKLEESGGGLVQPGGSMKLSCTASGFTFSDAWMDWVRQSPEKGLEWVAEIRHKANDHAIFYDESVKGRFTISRDDSKNIVYLQMNSLRPEDTGIYYCTSPFAYWGQGTLVTVSS VL: DIVMTQSQKFMSVTVGDRVSITCKASQSVGTTIVWYQQKPGQSPKLLIYSASNRHTGVPDRFTGSGSGTDFILTINNVQSEDLADYFCQQYTSYPFTFGSGTKLEIKR ?
Result: 623000
